Values from patent US20110028448A1

target: recombinant human S1P1 receptor (Homo sapiens); assay: GTPγS assay to determine EC50 values; type: biochemical; details: 35S-GTPγS binding, membrane preparations of CHO cells expressing recombinant human S1P1 receptor; read-out: EC50
Sequence (P21453 whole entry): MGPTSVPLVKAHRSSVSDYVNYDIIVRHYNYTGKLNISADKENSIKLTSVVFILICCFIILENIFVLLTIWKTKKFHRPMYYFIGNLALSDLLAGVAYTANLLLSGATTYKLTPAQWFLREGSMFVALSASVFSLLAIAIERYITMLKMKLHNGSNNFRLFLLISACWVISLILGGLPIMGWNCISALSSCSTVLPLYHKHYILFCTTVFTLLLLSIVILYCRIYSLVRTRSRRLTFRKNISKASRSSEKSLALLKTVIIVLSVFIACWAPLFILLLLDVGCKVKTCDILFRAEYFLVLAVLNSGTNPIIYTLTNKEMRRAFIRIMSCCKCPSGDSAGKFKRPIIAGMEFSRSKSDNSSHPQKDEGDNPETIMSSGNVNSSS
Classify: condition met when EC50 is strictly less than 3 nM; condition not met when EC50 is not.

[
  {
    "Line notation": "CCc1cc(-c2noc(-c3cnc(N(C)C(C)C)c(C)c3)n2)cc(C)c1OC[C@@H](O)CNC(=O)CO",
    "Discrete label": "condition not met"
  },
  {
    "Line notation": "CCN(CC)c1ncc(-c2nc(-c3cc(C)c(OC[C@@H](O)CO)c(Cl)c3)no2)cc1C",
    "Discrete label": "condition not met"
  },
  {
    "Line notation": "CCc1cc(-c2nnc(-c3cnc(N(CC)CC)c(C)c3)o2)cc(C)c1OC[C@@H](O)CNC(=O)CO",
    "Discrete label": "condition not met"
  },
  {
    "Line notation": "CCc1cc(-c2nc(-c3cc(C)c(OC[C@@H](O)CO)c(CC)c3)no2)cnc1N(C)C(C)C",
    "Discrete label": "condition not met"
  },
  {
    "Line notation": "CCN(CC)c1ncc(-c2nc(-c3cc(C)c(OC[C@@H](O)CNC(=O)CO)c(Cl)c3)no2)cc1C",
    "Discrete label": "condition met"
  }
]

Next:
Ask: hey, is EC50 for "CCc1cc(-c2nc(-c3cc(C)c(CCC(=O)NCC(=O)O)c(CC)c3)no2)cnc1N(CC)CC" lower than 3 nM or not?
Result: condition not met
